System: CCRIS mutagenicity, Ames/micronucleus/aberration tests
Experiment: CCRIS mutagenicity studies
Settings: Test System: AMES SALMONELLA TYPHIMURIUM; Strain/Indicator: TA98; Metabolic Activation: NONE; Method: STANDARD PLATE
Calls of active or inactive are those of the source. The rule behind the calls is not given here.
Measured Metric: mutagenic call

Recorded mutagenic call, per entry:
molecule=Oc1ccc2c(c1)OCO2 measured_value="inactive; negative"
molecule=Cc1ccc2nsc(N)c2c1 measured_value="inactive; negative"
molecule=C=CC(=O)OCC(CC)(COC(=O)C=C)COC(=O)C=C measured_value="inactive; negative"
molecule=COc1cc(/C=C/C(=O)O[C@H]2CC[C@]34C[C@]35CC[C@]3(C)[C@@H]([C@H](C)CCC=C(C)C)CC[C@@]3(C)[C@@H]5CC[C@H]4C2(C)C)ccc1O measured_value="inactive; negative"

Kindly give each listed record's mutagenic call.
1. CN(C)C=O
2. Cn1cnc2c(N)ncnc21
3. Nc1c(C(=O)O)cc([N+](=O)[O-])c2c1C(=O)c1ccccc1C2=O
4. N#CSCSC#N

stdout:
1: inactive; negative; 2: inactive; negative; 3: active; positive; 4: inactive; negative

Kindly give each listed record's mutagenic call.
1. C=C(C)C(=O)OCC(CC)(COC(=O)C(=C)C)COC(=O)C(=C)C
2. O=[N+]([O-])c1cc2c(cc3ccc4cccc5ccc2c3c45)o1
3. CCOC(=O)Cc1c(C(=O)O)c2ccccc2n1C
4. BrCc1ccc2c(c1)-c1cccc3cccc-2c13
5. Cc1ccc2c(c1Nc1ccccc1)C(=O)c1ccccc1C2=O

stdout:
1: inactive; negative; 2: active; positive; 3: inactive; negative; 4: active; positive; 5: inactive; negative

Kindly give each listed record's mutagenic call.
1. CCN(CCCl)c1ccc(OCCCCCNc2c3ccccc3nc3ccccc23)cc1
2. C#C[C@]1(O)CC[C@H]2[C@@H]3CCc4cc(O)ccc4[C@H]3CC[C@@]21C
3. C=C(C)C1CO1 (stereo not given)
4. CC(=O)ON(C(C)=O)c1ccc2c(c1)Cc1ccccc1-2
5. CC(Oc1ccc(Cl)cc1Cl)C(=O)O (stereo not given)
6. BrC(Br)C(Br)Br
7. CCCCCCCC/C=C\CCCCCCCCN (tested in a mixture with another compound)

stdout:
1: active; positive; 2: inactive; negative; 3: inactive; negative; 4: active; positive; 5: inactive; negative; 6: inactive; negative; 7: inactive; negative

====

Test system: CCRIS mutagenicity, Ames/micronucleus/aberration tests
Assay: CCRIS mutagenicity studies
Settings: Test System: AMES SALMONELLA TYPHIMURIUM; Strain/Indicator: TA97; Metabolic Activation: RAT, LIVER, S-9, AROCLOR 1254; Method: STANDARD PLATE
Active and inactive are the calls of the source. No rule for the calls is given here.
Give your call using only these classes: active, inactive

Field: example entries. Status: answers known.
chemical_structure=Clc1ccccn1 assigned_label=active
chemical_structure=ClC1=C(Cl)[C@]2(Cl)[C@H]3[C@H]([C@@H]4C=C[C@H]3C4)[C@@]1(Cl)C2(Cl)Cl assigned_label=inactive
chemical_structure=O=NN1CCCC1 assigned_label=inactive
chemical_structure=Cn1cnc2c(N)ncnc21 assigned_label=inactive
chemical_structure=CN(C)C=O assigned_label=inactive
chemical_structure=CC(F)(F)F assigned_label=inactive
chemical_structure=Cc1ccc(S(=O)(=O)NN)cc1 assigned_label=inactive
chemical_structure=CCOC(=O)c1[nH]c2ccccc2c1N=Cc1ccc(O)cc1 assigned_label=inactive

Please examine the following record next.
stdin: Status in this test for `Clc1ccc(Cl)nc1` ?
stdout: inactive
